Each recorded value in this set is attributed to the supplement of paper PMC10567573.

Here, each record is paired with measured protein stability index data.
B1: NETO1 (parent)
chain: GFSPIIGRFCGQQNPPVIKSSGRF

Variants of: B1
Test Protocol: protein stability index of a GFP-peptide fusion (GPS, HEK-293T) (PSI 1-6); higher = more stable;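 further: lentivirally expressed fusions sorted by FACS into six bins by GFP to DsRed ratio, PSI derived from sequencing read proportions per bin multiplied by bin number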
Experimental Context: c terminus: a fixed tail appended
Just the number, please, no unit after it.

Worked cases, answers included:
Please fill in: protein stability index reported for `G7R` = 2.25

Please fill in: protein stability index reported for `R23G` = 1.67

Please fill in: protein stability index reported for `G7K` = 1.89

Please fill in: protein stability index reported for `I18Q` = 2.78

Please fill in: protein stability index reported for `F24D` = 2.98

Please fill in: protein stability index reported for `C10K` = 2.93

Please fill in: protein stability index reported for `K19Y` = 1.91

Please fill in: protein stability index reported for `S3E` = 2.78

More entries:
Please fill in: protein stability index reported for `I6C` = 2.11
